# assayTarget: p110γ (Homo sapiens (Human))
# Sequence (P48736 whole entry): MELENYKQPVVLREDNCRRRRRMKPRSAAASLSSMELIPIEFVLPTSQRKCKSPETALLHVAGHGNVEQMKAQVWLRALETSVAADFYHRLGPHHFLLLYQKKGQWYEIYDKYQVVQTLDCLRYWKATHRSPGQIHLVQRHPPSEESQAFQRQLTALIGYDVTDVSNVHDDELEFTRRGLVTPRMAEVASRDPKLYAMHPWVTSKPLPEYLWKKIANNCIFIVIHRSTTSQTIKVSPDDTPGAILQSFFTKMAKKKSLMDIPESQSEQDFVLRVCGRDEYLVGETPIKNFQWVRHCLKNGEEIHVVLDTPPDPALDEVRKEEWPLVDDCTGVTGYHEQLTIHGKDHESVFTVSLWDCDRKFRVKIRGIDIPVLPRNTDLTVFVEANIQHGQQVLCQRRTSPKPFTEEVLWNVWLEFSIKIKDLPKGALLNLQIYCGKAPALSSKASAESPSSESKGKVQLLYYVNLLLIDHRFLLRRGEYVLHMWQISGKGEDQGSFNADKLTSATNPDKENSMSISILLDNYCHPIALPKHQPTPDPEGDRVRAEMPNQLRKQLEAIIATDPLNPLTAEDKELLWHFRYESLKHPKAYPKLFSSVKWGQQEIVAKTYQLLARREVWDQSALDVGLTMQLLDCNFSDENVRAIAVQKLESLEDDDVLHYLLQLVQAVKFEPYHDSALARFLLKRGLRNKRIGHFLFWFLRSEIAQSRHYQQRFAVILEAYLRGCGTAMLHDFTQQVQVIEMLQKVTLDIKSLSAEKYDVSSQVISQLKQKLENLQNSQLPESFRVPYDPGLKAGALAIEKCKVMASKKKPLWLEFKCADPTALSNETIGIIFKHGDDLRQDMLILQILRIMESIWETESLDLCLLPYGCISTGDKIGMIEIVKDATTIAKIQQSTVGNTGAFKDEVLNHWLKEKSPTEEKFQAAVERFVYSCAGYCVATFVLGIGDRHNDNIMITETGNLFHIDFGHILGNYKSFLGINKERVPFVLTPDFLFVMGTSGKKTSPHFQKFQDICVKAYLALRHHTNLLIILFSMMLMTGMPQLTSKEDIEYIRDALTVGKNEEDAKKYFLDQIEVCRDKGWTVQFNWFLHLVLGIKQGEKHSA
# protocolText: PI 3-Kinase (human) HTRF assay, p110γ
# Format: biochemical
# conditionParameters: in vitro; read-out: PI3K γ IC50
pIC50: −log10 of the molar value.
recordedEndpoint: pIC50

# smilesString, result
rows = [
    ("Nc1nc2cc(-c3ccc4ncc(N5CCN(C(=O)[C@H]6CCCN6)CC5)nc4c3)ccc2o1", "> 7.00"),
    ("CN1CCN(C2CN(c3cnc4ccc(-c5ccc6oc(N)nc6c5)cc4n3)C2)CC1", "> 5.00"),
    ("C[C@@H](N)C(=O)N1CCN(c2cnc3ccc(-c4ccc5oc(N)nc5c4)cc3n2)CC1", "> 5.00"),
    ("Nc1nc2cc(-c3ccc4ncc(N5CC(N6CC[C@H](O)C6)C5)nc4c3)ccc2o1", "> 6.00"),
    ("Nc1nc2cc(-c3ccc4ncn(CCN5CCOCC5)c(=O)c4c3)ccc2o1", "> 6.00"),
    ("Nc1nc2cc(-c3ccc4ncc(C(=O)N5CCOCC5)n4c3)cc(Cl)c2o1", "> 7.00"),
    ("CCN(CC)CCCNc1cnc2ccc(-c3ccc4oc(N)nc4c3)cc2n1", "> 6.00"),
    ("Cc1ccn(C2CCN(c3cnc4ccc(-c5ccc6oc(N)nc6c5)cc4n3)CC2)n1", "> 6.00"),
]
